Quick list: melting point per entry.

Quick one: melting point of COc1ccc(C)cc1NC(=O)Nc1ccc(N2CCN(C(=O)Nc3ccc(OCCO)cc3C(F)(F)F)CC2)cc1 ?
175 to 177 °C

What value of melting point has been reported for the following molecule? COc1ccc(C)cc1NC(=O)Nc1ccc(N2CCN(C(=O)C3CC4CCC3C4)CC2)cc1 (centres unmarked)
126 to 128 °C

Look at this molecule and give its reported melting point. O=C(Nc1ccc(N2CCN(C(=O)Nc3ccc(OCC(O)CO)cc3Cl)CC2)cc1)Nc1ccccc1F (centres unmarked)
189 to 190 °C

Any idea what its melting point is? The molecule is Cc1cccc(NC(=O)Nc2ccc(N3CCN(C(=O)OC(C)(C)C)CC3)cc2)c1
169 to 172 °C

Quick one: melting point for COc1ccccc1NC(=O)Nc1ccc(C2=CCN(C(=O)Nc3ccc(OCC(O)CO)cc3Cl)CC2)cc1 (centres unmarked) ?
103 to 107 °C
